Source listed as patent US20230322924A1.

target: T1, cynomolgus CD3e/d complex on cells transiently transfected with pcDNA3.1-CD3e/d-cyn-mix (cynomolgus, UniProt Q95LI5 22-198; Q95LI8 22-171)
T1 construct: Tagged screening constructs
T1 sequence (Q95LI5 22-198 limits assumed, chain 1 of 2): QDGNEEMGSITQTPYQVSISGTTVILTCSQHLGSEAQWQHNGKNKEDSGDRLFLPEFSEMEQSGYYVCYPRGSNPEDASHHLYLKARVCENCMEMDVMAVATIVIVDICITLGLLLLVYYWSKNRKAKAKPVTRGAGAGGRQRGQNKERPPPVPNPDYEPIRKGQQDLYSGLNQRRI
T1 sequence (Q95LI8 22-171 limits assumed, chain 2 of 2): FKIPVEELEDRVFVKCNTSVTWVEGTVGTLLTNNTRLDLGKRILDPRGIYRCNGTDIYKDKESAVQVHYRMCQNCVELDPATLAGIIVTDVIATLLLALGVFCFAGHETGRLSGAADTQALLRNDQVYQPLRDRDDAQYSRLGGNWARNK
procedure summary: CELISA, hybridoma supernatant
endpoint name: Rfu (rfu)
Express your answer in rfu, writing the number without its unit.

Solved entries (count: 2):
- binder: "BLX-1F8 (antibody, V domains shown, OmniRat hybridoma supernatant: human V regions on rat constant regions; also called V regions cloned as CD3B314 (CD3H220/CD3L126)) VH: QVQLQQSGPGLVKPSQTLSLTCAISGDSVFNNNAAWSWIRQSPSRGLEWLGRTYYRSKWLYDYAVSVKSRITVNPDTSRNQFTLQLKSVTPEDTALYYCSRGYSSSFDYWGQGTLVTVSS VL: QSALTQPASVSGSPGQSITISCTGTSSDIGTYKFVSWYQQHPDKAPKVLLYEVSKRPSGVSSRFSGSKSDNTASLTISGLQAEDQADYHCCSYAGSGTLLFGGGTKLTVL"
  unit name: "rfu"
  Rfu: 230
- binder: "BLX-3F4 (antibody, V domains shown, OmniRat hybridoma supernatant: human V regions on rat constant regions; also called V regions cloned as CD3B316 (CD3H222/CD3L124)) VH: QVRLQQSGPGLVKPSQTLSLTCAISGDSVFNNNAAWSWIRQSPSRGLEWLGRTYYRSKWLYDYAVTVKSRITVNPDTSRNQFTLQLTSVTPEDTALYYCARGYSSSFDYWGQGTLVTVSS VL: QSALTQPASVSGSPGQSITISCTGTSSNIGTYKFVSWYQQHPDKAPKVLLYEVSKRPSGVSSRFSGSKSGNTASLTISGLQAEDQADYHCCSYAGSGTLLFGGGTKLTVL"
  unit name: "rfu"
  Rfu: 371

Entry under review: BLX-2E9 (antibody, V domains shown, OmniRat hybridoma supernatant: human V regions on rat constant regions; also called V regions cloned as CD3B315 (CD3H221/CD3L124)) VH: QVQLQQSGPGLVKPSQTLSLTCAISGDSVFNNNGAWSWIRQSPSRGLEWLGRTYYRSKWLYDYAVSVKSRITVNPDTSRNQFTLQLNSVTPEDTALYYCARGYSSSFDYWGQGTLVTVSS VL: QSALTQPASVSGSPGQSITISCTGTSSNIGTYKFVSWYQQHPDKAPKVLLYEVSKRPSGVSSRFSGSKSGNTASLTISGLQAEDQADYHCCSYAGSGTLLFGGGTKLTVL . Reported Rfu?
320

Entry under review: BLW-3B4 (antibody, V domains shown, OmniRat hybridoma supernatant: human V regions on rat constant regions; also called V regions cloned as CD3B313 (CD3H218/CD3L125)) VH: QVQLQQSGPGLVKPSQTLSLTCAISGDSVFNNNAAWSWIRQSPSRGLEWLGRTYYRSKWLYDYAVSVKSRITVNPDTSRNQFTLQLNSVTPEDTALYYCVRGYSSSFDYWGQGTLVTVSS VL: QSALTQPASVSGSPGQSITISCTGTSRDIGTYKFVSWYQQHPDKAPKVLLYEVSKRPSGVSSRFSGSKSGNTASLTISGLQAEDQADYHCCSYAGSGTLLFGGGTKLTVL . Reported Rfu?
320
